- target-or-system: CD64 (FcgRI) (Homo sapiens, UniProt P12314)
- Sequence (P12314 16-374): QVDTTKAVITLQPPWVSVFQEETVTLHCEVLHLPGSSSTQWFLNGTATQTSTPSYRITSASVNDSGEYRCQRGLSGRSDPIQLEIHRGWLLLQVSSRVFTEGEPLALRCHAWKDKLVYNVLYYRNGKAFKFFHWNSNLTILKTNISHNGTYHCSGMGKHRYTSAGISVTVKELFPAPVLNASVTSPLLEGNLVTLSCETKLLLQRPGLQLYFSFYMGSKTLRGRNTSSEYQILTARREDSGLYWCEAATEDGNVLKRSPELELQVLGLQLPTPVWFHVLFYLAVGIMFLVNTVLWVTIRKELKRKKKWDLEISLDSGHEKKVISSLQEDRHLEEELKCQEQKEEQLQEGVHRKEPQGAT
- assay-summary: SPR, antibody binding to anti-his Fab captured FcgR-his (% Rmax)
- applied-conditions: 1 μM antibody
readout-name: % Rmax hCD64 (%)
Numeric answer only, unit % assumed.

molecule="mAb4-IgG2.3 (protein, left off: another chain or arm of the molecule) constant: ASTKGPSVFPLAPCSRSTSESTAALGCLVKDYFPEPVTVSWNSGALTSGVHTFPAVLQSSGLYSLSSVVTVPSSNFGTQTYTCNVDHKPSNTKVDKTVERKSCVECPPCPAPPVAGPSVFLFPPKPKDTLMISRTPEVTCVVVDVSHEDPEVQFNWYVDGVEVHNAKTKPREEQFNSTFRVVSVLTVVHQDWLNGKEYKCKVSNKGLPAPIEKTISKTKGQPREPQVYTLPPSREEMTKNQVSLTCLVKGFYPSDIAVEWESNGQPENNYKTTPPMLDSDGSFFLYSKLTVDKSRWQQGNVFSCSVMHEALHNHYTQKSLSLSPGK" result_units=% result_value=1

Input: For the molecule shown here, mAb8-IgG2.3G1-AY-V27 (protein, left off: another chain or arm of the molecule) constant: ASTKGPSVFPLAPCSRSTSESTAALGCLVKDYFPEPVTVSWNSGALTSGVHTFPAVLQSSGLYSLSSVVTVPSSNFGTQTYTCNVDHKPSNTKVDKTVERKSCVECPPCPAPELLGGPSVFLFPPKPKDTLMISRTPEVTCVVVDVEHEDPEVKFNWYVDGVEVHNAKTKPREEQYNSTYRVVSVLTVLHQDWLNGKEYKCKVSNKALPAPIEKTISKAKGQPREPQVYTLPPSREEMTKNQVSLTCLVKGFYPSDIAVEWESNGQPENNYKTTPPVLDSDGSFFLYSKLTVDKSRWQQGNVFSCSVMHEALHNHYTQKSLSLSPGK , give the reported % Rmax hCD64.
Output: 78
